Test: NCI Yeast Anticancer Drug Screen. Data for the rad50EPP+ strain (AID 151);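 further: 0% = growth of vehicle-treated control cultures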
Details: S. cerevisiae rad50 mutant strain, at 100.0 µM, active compounds read high
The panel holds about 79,000 compounds, 15% with a hit somewhere; the sample as a whole holds those more often.
Kindly supply the reported growth inhibition values for the records listed here.
Report as a plain number; the unit % is understood.

What the record says about `NC(=S)N1N=C2c3ccccc3CC[C@@H]2[C@@H]1c1ccccc1` : growth inhibition is -23

What the record says about `O=[N+]([O-])c1ccc2nc(=S)[nH]n2c1` : growth inhibition is 87

What the record says about BrC1C2CCC3OC3C12 (stereo unspecified) : growth inhibition is 96

What the record says about `CN(C)CCCn1c2c3ccccc3ccc2c2oc(=O)c3ccccc3c21` : growth inhibition is 98

What the record says about `COc1ccc2nc3cccc([N+](=O)[O-])c3c(NCCNCCO)c2c1` : growth inhibition is 96

What the record says about `O=C1c2ccccc2-c2ccc(N=Cc3ccccc3)cc21` : growth inhibition is 97

What the record says about `CCN(CC)C(=S)SC(=S)N(CC)CC` : growth inhibition is 99

What the record says about `S=C1N(c2ccc(Cl)cc2)C2=C(N=Nc3ccccc3)C(=Nc3ccccc3S2)N1c1ccccn1` : growth inhibition is 97

What the record says about `COc1ccccc1NC(=O)c1ccc(Cl)cc1` : growth inhibition is 40

What the record says about CCN1CCC(O)(c2ccc(Oc3ccc(C)cc3)cc2)C(C(=O)c2ccc(Oc3ccc(C)cc3)cc2)C1 (stereo unspecified) : growth inhibition is 93

What the record says about CCC[CH2][Ge]([CH2]CCC)([CH2]CCC)[O]C(=O)C(O)c1ccccc1 (stereo unspecified) : growth inhibition is 49
